Target: proteins in rat lung membranes
Assay: Competitive binding assay with [3H]-CP2117 on rat lung membranes (RLM)
Conditions: given as Log IC50 (negative values); displacement of 10 nM [3H]-CP2117, overnight at 4° C.; ND- not detected
Listing of entries alongside the reported Log IC50 RLM binding.
measured-property: Log IC50 RLM binding

[[record]]
molecule = "COc1cc(-c2ccc(Cl)cc2)c(/C(C)=N/OCc2ccc([N+](=O)[O-])cc2)cc1O [CP30340]"
subject_of_test = "proteins in rat lung membranes"
measured_property = "Log IC50 RLM binding"
reported_value = "−6.26"

[[record]]
molecule = "COc1cc(/C(C)=N/OCc2ccc3nonc3c2)ccc1O [AA-1-56]"
subject_of_test = "proteins in rat lung membranes"
measured_property = "Log IC50 RLM binding"
reported_value = "−6.21"

[[record]]
molecule = "COc1cc(-c2cccc(NC(=O)OC(C)(C)C)c2)c(/C(C)=N/OCc2ccc([N+](=O)[O-])cc2)cc1O [CP30339]"
subject_of_test = "proteins in rat lung membranes"
measured_property = "Log IC50 RLM binding"
reported_value = "−6.64"

[[record]]
molecule = "COc1cc(-c2ccc(NC(=O)OC(C)(C)C)cc2)c(/C(C)=N/OCc2ccc([N+](=O)[O-])cc2)cc1O [CP30342]"
subject_of_test = "proteins in rat lung membranes"
measured_property = "Log IC50 RLM binding"
reported_value = "−6.79"

[[record]]
molecule = "COc1cc([C@H]2CC[C@@](C)(CO)CC2)c(C(C)=NOCc2ccc([N+](=O)[O-])cc2)cc1O [CP30451]"
subject_of_test = "proteins in rat lung membranes"
measured_property = "Log IC50 RLM binding"
reported_value = "−5.73"

[[record]]
molecule = "COc1cc(-c2ccc(OC(F)(F)F)cc2)c(/C(C)=N/OCc2ccc([N+](=O)[O-])cc2)cc1O [CP30343]"
subject_of_test = "proteins in rat lung membranes"
measured_property = "Log IC50 RLM binding"
reported_value = "−6.23"

[[record]]
molecule = "COc1ccc(/C(C)=N/OCc2ccc3nonc3c2)cc1O [AA-1-80]"
subject_of_test = "proteins in rat lung membranes"
measured_property = "Log IC50 RLM binding"
reported_value = "−6.33"

[[record]]
molecule = "C/C(=N\\OCc1ccc2nonc2c1)c1ccc(O)c(F)c1 [CP9128]"
subject_of_test = "proteins in rat lung membranes"
measured_property = "Log IC50 RLM binding"
reported_value = "−5.9"


###

System: PGE2 release in J774 macrophages
Assay: PGE2 release from LPS/IFNγ-stimulated J774 macrophages (radioimmunoassay)
Assay type: cell-based, murine
Details: Mus musculus, J774, 24 h, 1 μM, 30 min pre-treatment, 24 hour incubation, read-out: Effects on PGE2 release in J774 macrophages at 1 μM as a % of LPS/IFNγ control, mean
Listing of entries alongside the reported activity at 1 µM.
measured-property: activity at 1 µM (%)

[[record]]
molecule = "COc1cc(-c2ccc(C)cc2)c(/C(C)=N/OCc2ccc([N+](=O)[O-])cc2)cc1O [CP30345]"
measured_property = "activity at 1 µM"
unit_descriptor = "%"
reported_value = 76

[[record]]
molecule = "COc1ccc(/C(C)=N/OCc2ccc3nonc3c2)cc1O [CP933]"
measured_property = "activity at 1 µM"
unit_descriptor = "%"
reported_value = 109

[[record]]
molecule = "C/C(=N\\OCc1ccc2nonc2c1)c1ccc(O)c(F)c1 [CP9128]"
measured_property = "activity at 1 µM"
unit_descriptor = "%"
reported_value = 62

[[record]]
molecule = "COc1cc(C2CCCCC2)c(C(C)=NOCc2ccc([N+](=O)[O-])cc2)cc1O [CP30424]"
measured_property = "activity at 1 µM"
unit_descriptor = "%"
reported_value = 83

[[record]]
molecule = "COc1cc(-c2ccc(F)cc2)c(/C(C)=N/OCc2ccc([N+](=O)[O-])cc2)cc1O [CP30344]"
measured_property = "activity at 1 µM"
unit_descriptor = "%"
reported_value = 111

[[record]]
molecule = "COc1cc(-c2ccc(NC(=O)OC(C)(C)C)cc2)c(/C(C)=N/OCc2ccc([N+](=O)[O-])cc2)cc1O [CP30342]"
measured_property = "activity at 1 µM"
unit_descriptor = "%"
reported_value = 19

[[record]]
molecule = "COc1ccc(/C(C)=N/OCc2ccc([N+](=O)[O-])cc2)cc1 [CP30253]"
measured_property = "activity at 1 µM"
unit_descriptor = "%"
reported_value = 47

[[record]]
molecule = "COc1cc(-c2ccc(N)cc2)c(/C(C)=N/OCc2ccc([N+](=O)[O-])cc2)cc1O [CP30381]"
measured_property = "activity at 1 µM"
unit_descriptor = "%"
reported_value = 62

[[record]]
molecule = "COc1cc2c(cc1OC)/C(=N/OCc1ccc([N+](=O)[O-])cc1)CC2 [TB54]"
measured_property = "activity at 1 µM"
unit_descriptor = "%"
reported_value = 95


Source: patent US8536157B2
